Where these numbers come from: PubChem BioAssay (EPA / NIEHS)

- Read-out: Thrombomodulin, THBD (gene 7056)
- PROCEDURE SUMMARY: BSK_CASM3C_Thrombomodulin: BioMAP Diversity Plus: CASM3C Assay for Thrombomodulin Biomarker Activity (AID 2283051);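 also: thrombomodulin protein level measured by ELISA 24 h after dosing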
- RUN CONDITIONS: primary human coronary artery smooth muscle cells; actives raise or lower the signal
The source made the active and inactive calls. The calls were made as follows: active = hit-call score of the fitted dose curve at least 0.9, where 1 is the maximum; inactive = score below 0.9.

| SMILES REPR | outcome |
| --- | --- |
| C=C(C)C(=O)OCC(F)(F)C(F)(F)C(F)(F)C(F)(F)C(F)(F)C(F)(F)C(F)(F)F | inactive |
| O=S(=O)(OCC(F)F)C(F)(F)F | inactive |
| C#C[C@]1(O)CC[C@H]2[C@@H]3CCc4cc(OC)ccc4[C@H]3CC[C@@]21C | inactive |
| C=CC(=O)OCC(F)(F)C(F)(F)C(F)(F)C(F)(F)COC(=O)C=C | inactive |
| C=CC(F)(F)C(F)(F)C(F)(F)C(F)(F)C(F)(F)C(F)(F)C(F)(F)C(F)(F)C=C | inactive |

* * *

- SYSTEM UNDER TEST: X-box-binding protein 1 (Homo sapiens)
- PROCEDURE SUMMARY: ATG_Xbp1_CIS: Attagene CIS-FACTORIAL HepG2 Assay for human X-box Binding Protein 1 (XBP1) (AID 2282972)
- RUN CONDITIONS: HepG2 XBP1 cis-element reporter, Attagene multiplex; actives raise or lower the signal
Active and inactive are the calls of the source. How the source made its calls: active means hit-call score of the fitted dose curve at least 0.9, where 1 is the maximum; inactive means score below 0.9.
Outcome codes: yes = active, no = inactive

| COMPOUND | SYSTEM UNDER TEST | QUALITATIVE LABEL |
| --- | --- | --- |
| C=CC(F)(F)C(F)(F)C(F)(F)C(F)(F)C(F)(F)C(F)(F)C(F)(F)C(F)(F)C=C | X-box-binding protein 1 (Homo sapiens) | no |
| CC(Cc1ccc(O)c(O)c1)C(C)Cc1ccc(O)c(O)c1 (configuration not stated) | X-box-binding protein 1 (Homo sapiens) | yes |
| O=C(OCCOCCOCCOC(=O)c1ccccc1)c1ccccc1 | X-box-binding protein 1 (Homo sapiens) | no |
| Nc1ccc(S(=O)(=O)Nc2nccs2)cc1 | X-box-binding protein 1 (Homo sapiens) | no |
| FC(F)(Br)C(F)(F)C(F)(F)C(F)(F)C(F)(F)C(F)(F)Br | X-box-binding protein 1 (Homo sapiens) | no |
| O=C(CC(=O)C(F)(F)C(F)(F)F)C(F)(F)F | X-box-binding protein 1 (Homo sapiens) | no |
| [Co] | X-box-binding protein 1 (Homo sapiens) | no |
| O=C(O)C(F)(F)C(F)(F)C(F)(F)F | X-box-binding protein 1 (Homo sapiens) | no |
| FC(F)(F)C(F)(F)C(F)(F)C(F)(F)C(F)(F)C(F)(F)C(F)(F)C(F)(F)F | X-box-binding protein 1 (Homo sapiens) | no |
| C=CC/C=C/C/C=C/C/C=C/C | X-box-binding protein 1 (Homo sapiens) | no |
| CC(=O)Nc1ccc(N=Nc2cc(C)ccc2O)cc1 | X-box-binding protein 1 (Homo sapiens) | no |
| CCCCOCCOCCOC(=O)CCCCC(=O)OCCOCCOCCCC | X-box-binding protein 1 (Homo sapiens) | no |

* * *

- Read-out: TIMP metallopeptidase inhibitor 2 (TIMP2), TIMP2 (gene 7077)
- PROCEDURE SUMMARY: BSK_KF3CT_TIMP2: BioMAP Diversity Plus: KF3CT Assay for TIMP metallopeptidase inhibitor 2 (TIMP2) Biomarker Activity (AID 2283071)
- RUN CONDITIONS: primary human keratinocytes with fibroblasts; actives raise or lower the signal
The source made the active and inactive calls. How the source made its calls: active means hit-call score of the fitted dose curve at least 0.9, where 1 is the maximum; inactive means score below 0.9.
Outcome codes: true (1) (active), false (0) (inactive)

| COMPOUND | QUALITATIVE LABEL |
| --- | --- |
| O=C(O)C(F)(F)C(F)(F)F | false (0) |
| C=C(C)C(=O)OCC(F)(F)C(F)(F)C(F)(F)F | false (0) |
| OCC(F)(F)C(F)(F)C(F)(F)C(F)(F)C(F)(F)C(F)(F)F | false (0) |
| OCC(F)(F)C(F)(F)C(F)(F)F | false (0) |
| C=C(C)C(=O)OCCC(F)(F)C(F)(F)C(F)(F)C(F)(F)C(F)(C(F)(F)F)C(F)(F)F | false (0) |
| OCC(F)(F)C(F)(F)C(F)(F)C(F)(F)C(F)(F)C(F)F | false (0) |
| C=CC(F)(F)C(F)(F)C(F)(F)C(F)(F)C(F)(F)C(F)(F)C(F)(F)C(F)(F)C=C | false (0) |
| O=C(O)C(F)(OC(F)(F)C(F)(OC(F)(F)C(F)(F)C(F)(F)F)C(F)(F)F)C(F)(F)F (configuration not stated) | false (0) |
| CC(=O)Nc1ccc(N=Nc2cc(C)ccc2O)cc1 | false (0) |
| Cc1ccc(S(=O)(=O)OCC(F)(F)C(F)(F)C(F)(F)C(F)(F)C(F)(F)C(F)F)cc1 | false (0) |
| FC(F)(F)C(F)(F)C(F)(F)C(F)(F)CCI | false (0) |
| FC(F)(F)C(F)(F)C(F)(F)C(F)(F)C(F)(F)C(F)(F)CCS | false (0) |
| O[Si](c1ccccc1)(c1ccccc1)c1ccccc1 | true (1) |
| N=C(N)C(F)(F)C(F)(F)C(F)(F)C(F)(F)C(F)(F)C(F)(F)C(F)(F)F | false (0) |
| CCCCNc1ccccc1 | false (0) |
| FC(F)(F)C(F)(F)CNCC(F)(F)C(F)(F)F | false (0) |
| NC(=O)C(F)(F)C(F)(F)C(F)(F)C(F)(F)F | false (0) |
| CO[Si](OC)(c1ccccc1)c1ccccc1 | true (1) |
| CCc1c(Br)c(Br)c(Br)c(Br)c1Br | false (0) |
| FC(F)(Br)C(F)(F)C(F)(F)C(F)(F)C(F)(F)C(F)(F)Br | false (0) |
| O=C(O)C(F)(F)C(F)(F)C(F)(F)C(F)(F)C(F)(F)C(F)(F)C(F)(F)C(F)(F)C(F)(F)C(F)(F)C(F)(F)C(F)(F)C(F)(F)F | false (0) |
| CC(C)(C)C(=O)CC(=O)C(F)(F)C(F)(F)C(F)(F)F | false (0) |
| FC(F)(F)C(F)(F)C(F)(F)C(F)(F)C(F)(F)C(F)(F)C(F)(F)I | false (0) |
| C=CC(F)(F)C(F)(F)C(F)(F)C(F)(F)C(F)(F)C(F)(F)C(F)(F)C(F)(F)F | false (0) |
| CCCCOCCOCCOC(=O)CCCCC(=O)OCCOCCOCCCC | false (0) |
| O=C(O)C(F)(F)C(F)(F)C(F)(F)C(F)(F)C(F)(F)C(F)(F)C(F)(F)C(F)(F)C(F)(F)C(F)(F)C(F)(F)C(F)(F)F | false (0) |
| O=C(O)C(F)(OC(F)(F)C(F)(OC(F)(F)C(F)(OC(F)(F)C(F)(F)C(F)(F)F)C(F)(F)F)C(F)(F)F)C(F)(F)F (configuration not stated) | false (0) |
| CCCCCCC(C)OC(=O)CCCCC(=O)OC(C)CCCCCC (configuration not stated) | false (0) |
| O=S(=O)(OCCOC(F)(F)F)C(F)(F)F | false (0) |
| FC1CC(F)(F)C(F)(F)C1(F)F (configuration not stated) | false (0) |
| O=C(O)C(F)(F)C(F)(F)C(F)F | false (0) |
| CCCCCCOC(=O)c1ccccc1O | false (0) |
| O=C(O)C=C(C(F)(F)F)C(F)(F)F | false (0) |
| CCc1ccc(C(c2ccc(CC)cc2)C(Cl)Cl)cc1 | true (1) |
| CCN(CC)c1ccc2c(C)cc(=O)oc2c1 | false (0) |
| OCC(F)(F)C(F)(F)C(F)(F)C(F)F | false (0) |
| O=P(O)(O)OCCC(F)(F)C(F)(F)C(F)(F)C(F)(F)C(F)(F)C(F)(F)F | false (0) |
